Target: RNC^EspP-SRP complex (SRP with DACM-labeled Ffh(C235), loaded with RNC^EspP) (Escherichia coli | not stated) (UniProt P0AGD7)
Experiment: FRET or BRET
experimental_endpoint: Kd (nM)

- substance: "BODIPY-FL (acceptor)-labeled FtsY(C487) (from UniProt P10121 1-497) (receptor)"
  scale_unit: "nM"
  observed_result: 311
